ASSAY NOTES: superoxide lowering in aged yeast cells, pilot screen, validation compound set (AID 2706);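 also: yeast exposed to compound for one week at 30 degrees C before staining; 100% = mean of all compound wells on the same plate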
DETAILS: S. cerevisiae aging, superoxide DHE fluorescence; at 10 µM, stronger effect = lower value
Peptide text beside a SMILES is read from it. * marks the point of attachment. Boc = CC(C)(C)OC(=O)*; OBn = c1ccc(CO*)cc1
Measured superoxide response (% of plate), listed per entry.
// return numeric value only (unit: %, not printed)

Here is how some compounds turned out for superoxide response (% of plate).
Please report the recorded superoxide response (% of plate) for COc1cc2c(cc1OC)C(c1cc(OC)c(OC)c(OC)c1)NCC2 (configuration not stated) .
102

Please report the recorded superoxide response (% of plate) for Cc1nc(C)c(C)nc1C .
104

Please report the recorded superoxide response (% of plate) for Oc1[nH]c2ccccc2c1N=Nc1ccccc1 .
104

Please report the recorded superoxide response (% of plate) for CC1=CC(C)(C)N2C(=O)C3(NCCc4c3[nH]c3ccccc43)c3cc(C)cc1c32 (configuration not stated) .
97.3

Please report the recorded superoxide response (% of plate) for CC[N+](C)(C)Cc1ccccc1Br .
96.2

Please report the recorded superoxide response (% of plate) for NCCOc1ccccc1OCCN .
91.8

More entries:
Please report the recorded superoxide response (% of plate) for c1ccc2c3c(c(CN4CCCCC4)cc2c1)COC3 .
116

Please report the recorded superoxide response (% of plate) for CC(C)C1Cc2[nH]c(=O)c(C(=O)O)cc2CO1 (configuration not stated) .
95.9

Please report the recorded superoxide response (% of plate) for CC(C)CC(NC(=O)C(NC(=O)OC(C)(C)C)C(C)C)C(=O)NC(CCC(=O)OCc1ccccc1)C(N)=O (stereo not drawn) (Boc-Val-Leu-Glu(OBn)-NH2; configuration not given here) .
94.3

Please report the recorded superoxide response (% of plate) for CC1CCCc2sc3ncn(N)c(=N)c3c21 (configuration not stated) .
94.2

Please report the recorded superoxide response (% of plate) for CC1(C)O[C@@H]2C[C@H]3[C@@H]4CCC5=CC(=O)C=C[C@]5(C)[C@@]4(F)[C@@H](O)C[C@]3(C)[C@]2(C(=O)CO)O1 .
91.8

Please report the recorded superoxide response (% of plate) for CC1(C)CC(=O)C(C2(O)C(=O)Nc3ccccc32)CO1 (configuration not stated) .
92.3

----------
Test system: anti-desmoglein-3 scFv antibody binding to human DSG3
ASSAY NOTES: inhibitors of anti-DSG3 scFv binding to DSG3, pilot screen, biochemical, validation compound set, bead-based, flow cytometry (AID 588368);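 also: signal is the median channel fluorescence of bead-bound GFP antibody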
DETAILS: Protein G beads, DSG3-Fc, scFv-GFP binding, at 10 µM, stronger effect = lower value
OBSERVATION TYPE: binding (% of control) (%)
// return numeric value only (unit: %, not printed)

Here is how some compounds turned out for binding (% of control).
Please report the recorded binding (% of control) for C#CCN(C)CCCOc1ccc(Cl)cc1Cl .
96.3

Please report the recorded binding (% of control) for Cc1cc(=O)oc(C)c1C(=O)NCCC(C)C .
102

Please report the recorded binding (% of control) for Cc1nc(C(=O)Nc2ccccc2Cl)cc2c1[nH]c1ccccc12 .
95.4

Note: attention shifts to another entry.
Please report the recorded binding (% of control) for CCC12CN3CC(CC)(CN(C1)C31C(=O)N(C)c3ccc(C)cc31)C2=O (stereo unspecified) .
102

----------
Measured GFP response vs DMSO, listed per entry.
ASSAY NOTES: modulators of MEP2-GFP levels in yeast, confirmation, S. cerevisiae, flow cytometry GFP, cherry picks (AID 2272);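 also: ratio of well signal to plate DMSO mean so 100% equals DMSO level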
DETAILS: S. cerevisiae MEP2-GFP strain, 3 h, at 10 µM, stronger effect = higher value
// return numeric value only (unit: %, not printed)

Here is how some compounds turned out for GFP response vs DMSO.
Please report the recorded GFP response vs DMSO for Cc1ccc(C(=O)NNC(=S)NC(=O)COc2ccccc2)cc1 .
153

Please report the recorded GFP response vs DMSO for Cc1cccc(CS(=O)(=O)c2ncc(Cl)c(C(=O)Nc3c(C)cccc3C)n2)c1 .
105

Please report the recorded GFP response vs DMSO for Oc1c(CN2CCN(c3ccccc3)CC2)cc(Br)c2cccnc12 .
153

Please report the recorded GFP response vs DMSO for CC(=O)Nc1ccc(S(=O)(=O)NC(CC(=O)NCCC2=CCCCC2)C(C)C)cc1 (stereo not given) .
102

More entries:
Please report the recorded GFP response vs DMSO for Cc1cccn2c(=O)c(/C=C(\C#N)C(=O)NC3CCS(=O)(=O)C3)c(N3CC(C)OC(C)C3)nc12 (stereo not given) .
100

----------
ASSAY NOTES: LAP4-GFP expression modulators in yeast, confirmation, cell-based, cherry picks, flow cytometry, mother/daughter gates (AID 2271);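 also: ratio of sample to DMSO plate mean so 100% equals DMSO level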
DETAILS: S. cerevisiae LAP4-GFP strain, 3 h, measured here: mother cell gate response, at 10 µM, stronger effect = higher value, 100 means same as DMSO control
Measured GFP response relative to DMSO, listed per entry.
// return numeric value only (unit: %, not printed)

Here is how some molecules turned out for GFP response relative to DMSO.
Please report the recorded GFP response relative to DMSO for Cc1ccc(N2C(=O)C3C4C=CC(CNC(=S)N5CCN(c6ccccn6)CC5)(O4)C3C2=O)cc1 (stereo not drawn) .
111

Please report the recorded GFP response relative to DMSO for COc1ccc(N2C(=O)CC(Sc3nccc(C)n3)C2=O)cc1 (stereo not drawn) .
98.5

Please report the recorded GFP response relative to DMSO for Cc1cccn2c(=O)c(/C=C(\C#N)C(=O)NCc3ccco3)c(N3CCOCC3)nc12 .
96.2

Please report the recorded GFP response relative to DMSO for Cc1cccc(CSCc2ccc(C(=O)NC(C)C)o2)c1 .
99.4

More entries:
Please report the recorded GFP response relative to DMSO for Cc1nc2ccccc2n2c(O)c(CC(=O)O)cc12 .
99.5

Please report the recorded GFP response relative to DMSO for COC(=O)C1CCN(C(=O)COC(=O)CCc2nc3ccccc3c(=O)[nH]2)CC1 .
96.5

Please report the recorded GFP response relative to DMSO for COC(=O)c1ccc(Sc2ccccn2)c([N+](=O)[O-])c1 .
100

----------
ASSAY NOTES: modulators of CIT2-GFP expression in yeast, confirmation, S. cerevisiae, GFP fusion, cherry picks, mother/daughter gates (AID 2274)
DETAILS: S. cerevisiae CIT2-GFP strain, flow cytometry, 3 h; at 10 µM; stronger effect = higher value
Measured GFP response, % of DMSO, listed per entry.
// return numeric value only (unit: %, not printed)

Please report the recorded GFP response, % of DMSO for Cc1ccc(NC(=S)N2CCSC2c2cccs2)cc1 (stereo unspecified) .
103

Note: attention shifts to another entry.
Please report the recorded GFP response, % of DMSO for COc1ccc(-c2nc3cc(C)ccn3c2NCC2CCCO2)cc1OC (stereo unspecified) .
100

----------
Measured GFP response vs DMSO, listed per entry.
ASSAY NOTES: RPL19A-GFP modulators, yeast TOR pathway, confirmation, cell-based, S. cerevisiae, flow cytometry, cherry picks, mother/daughter gates (AID 2270)
DETAILS: S. cerevisiae RPL19A-GFP strain, 3 h, at 10 µM, stronger effect = lower value, 100 = same GFP as DMSO wells
// return numeric value only (unit: %, not printed)

Here is how some compounds turned out for GFP response vs DMSO.
Please report the recorded GFP response vs DMSO for Cc1ccc(/C=C/C(=O)c2ccc(C)cc2)cc1 .
97.2

Please report the recorded GFP response vs DMSO for O=C(Cc1ccc(Cl)cc1)NNC(=S)NC(=O)c1cccs1 .
104

Note: attention shifts to another entry.
Please report the recorded GFP response vs DMSO for Cc1cccc(C)c1OCCOC(=O)c1n[nH]c2ccccc12 .
98.8

----------
ASSAY NOTES: yeast V-ATPase proton transport modulators, S. cerevisiae, pHLuorin, HTS validation (AID 504600);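 also: plate controls were DMSO for no effect and reference compound for full effect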
DETAILS: S. cerevisiae pHLuorin cytosolic pH, at 10 µM, stronger effect = higher value
Measured response, listed per entry.
// return numeric value only (unit: %, not printed)

Please report the recorded response for Cc1ccc(OCCSc2ncccn2)c(C)c1 .
12.3

Please report the recorded response for CCOC(=O)c1ccccc1NC(=O)c1ccc(F)cc1 .
-5.23

Please report the recorded response for COC(=O)c1[nH]c2ccc(F)cc2c1NC(=O)C1=COCCO1 .
-2.26

Please report the recorded response for CCOC(=O)C(=O)Nc1ccc(Oc2ccccc2)cc1 .
1.03

Please report the recorded response for COc1ccc2c(c1)CC[C@@H]1[C@@H]2CC[C@]2(C)C(=O)CC[C@@H]12 .
109

More entries:
Please report the recorded response for Cc1cc(-c2nn(-c3ccccc3F)cc2CN2CCC(O)CC2)c(C)s1 .
0.7

Please report the recorded response for CC1CCCc2sc3ncn(N)c(=N)c3c21 (configuration not stated) .
3.56

Please report the recorded response for Cc1ccccc1OCC(O)CN1CCN(C)CC1 (configuration not stated) .
-0.77

Please report the recorded response for CCOc1cc2oc(=O)c3c(c2cc1Cl)CCC3 .
-4.08

Please report the recorded response for CC(=O)Oc1ccc(C2OC(=O)c3ccccc3N2C(C)=O)cc1 (configuration not stated) .
-2.98

Please report the recorded response for CCOC(=O)/C=C1\NC(C)(C)Cc2cc(OC)c(OC)cc21 .
-1.95

Please report the recorded response for CN1C(=O)C(O)(CC(=O)/C=C/C=C/c2ccccc2)c2ccccc21 (configuration not stated) .
0.35
